B1: RSPH3 (parent)
chain: VDVQTELYLEEIADRIIEVDMECQ

- Variants of: B1
- assay-protocol: protein stability index of a GFP-peptide fusion (GPS, HEK-293T) (PSI 1-6); higher = more stable;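 note: lentivirally expressed fusions sorted by FACS into six bins by GFP to DsRed ratio, PSI derived from sequencing read proportions per bin multiplied by bin number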
- condition-details: c terminus: a fixed tail appended
# protein stability index listing for each entry below

sequence-variant	protein stability index
I17E	3.87
E10Y	3.16
V1C	2.36
I12M	3.11
E6P	3.41
C23G	3.72

Identify the reported protein stability index for the following entry. "V19W" 2.28

Identify the reported protein stability index for the following entry. "A13T" 2.62

Identify the reported protein stability index for the following entry. "Q4S" 2.7

Identify the reported protein stability index for the following entry. "V19G" 4.16

Identify the reported protein stability index for the following entry. "R15S" 3.16
